// provenance: patent US8952159B2

assay: Comparative test of solubility in water of different forms of rifaximin (spectrophotometric, absorbance at 450.50 nm); format: physicochemical; details: time 30 min; suspension in deionized water, constant stirring, 25° C.

[
  {
    "compound": "CO[C@H]1/C=C/O[C@@]2(C)Oc3c(C)c(O)c4c(O)c(c5c(nc6cc(C)ccn65)c4c3C2=O)NC(=O)/C(C)=C\\C=C\\[C@H](C)[C@H](O)[C@@H](C)[C@@H](O)[C@@H](C)[C@H](OC(C)=O)[C@@H]1C [example 8, rifaximin]",
    "Solubility in water / g/L": 0.076
  },
  {
    "compound": "CO[C@H]1/C=C/O[C@@]2(C)Oc3c(C)c(O)c4c(O)c(c5c(nc6cc(C)ccn65)c4c3C2=O)NC(=O)/C(C)=C\\C=C\\[C@H](C)[C@H](O)[C@@H](C)[C@@H](O)[C@@H](C)[C@H](OC(C)=O)[C@@H]1C [example 5, rifaximin]",
    "Solubility in water / g/L": 0.027
  }
]

----------
Assay: Comparative test of solubility in water of different forms of rifaximin (spectrophotometric, absorbance at 450.50 nm)
Format: physicochemical
Conditions: deionized water, 25 °C, water, thermodynamic from solid, time 120 min, suspension in deionized water, constant stirring
Description: The solubility in water of different forms of rifaximin was evaluated by means of spectrophotometric method, by performing the analyses on a Lambda10 (Perkin Elmer) apparatus. […] The straight line resulted to follow the Lambert-Beer law, showing linearity in the concentration range of the five measured reference solutions. […] 0.3 ml of the collected solution were read at the UV by measuring the absorbance 450.50 nm. […]

[
  {
    "entry_smiles": "CO[C@H]1/C=C/O[C@@]2(C)Oc3c(C)c(O)c4c(O)c(c5c(nc6cc(C)ccn65)c4c3C2=O)NC(=O)/C(C)=C\\C=C\\[C@H](C)[C@H](O)[C@@H](C)[C@@H](O)[C@@H](C)[C@H](OC(C)=O)[C@@H]1C",
    "solubility at 120 min (mg/mL)": 0.085
  }
]

----------
A collection of compounds and their measured Solubility in water
test: Comparative test of solubility in water of different forms of rifaximin (spectrophotometric, absorbance at 450.50 nm); format: physicochemical; details: time 180 min; suspension in deionized water, constant stirring, 25° C.

[
  {
    "compound": "CO[C@H]1/C=C/O[C@@]2(C)Oc3c(C)c(O)c4c(O)c(c5c(nc6cc(C)ccn65)c4c3C2=O)NC(=O)/C(C)=C\\C=C\\[C@H](C)[C@H](O)[C@@H](C)[C@@H](O)[C@@H](C)[C@H](OC(C)=O)[C@@H]1C [example 13, rifaximin]",
    "Solubility in water [µg/mL]": 89
  },
  {
    "compound": "CO[C@H]1/C=C/O[C@@]2(C)Oc3c(C)c(O)c4c(O)c(c5c(nc6cc(C)ccn65)c4c3C2=O)NC(=O)/C(C)=C\\C=C\\[C@H](C)[C@H](O)[C@@H](C)[C@@H](O)[C@@H](C)[C@H](OC(C)=O)[C@@H]1C [example 8, rifaximin]",
    "Solubility in water [µg/mL]": 86.4
  },
  {
    "compound": "CO[C@H]1/C=C/O[C@@]2(C)Oc3c(C)c(O)c4c(O)c(c5c(nc6cc(C)ccn65)c4c3C2=O)NC(=O)/C(C)=C\\C=C\\[C@H](C)[C@H](O)[C@@H](C)[C@@H](O)[C@@H](C)[C@H](OC(C)=O)[C@@H]1C [form γ, rifaximin]",
    "Solubility in water [µg/mL]": 42
  },
  {
    "compound": "CO[C@H]1/C=C/O[C@@]2(C)Oc3c(C)c(O)c4c(O)c(c5c(nc6cc(C)ccn65)c4c3C2=O)NC(=O)/C(C)=C\\C=C\\[C@H](C)[C@H](O)[C@@H](C)[C@@H](O)[C@@H](C)[C@H](OC(C)=O)[C@@H]1C [example 1, rifaximin]",
    "Solubility in water [µg/mL]": 45
  },
  {
    "compound": "CO[C@H]1/C=C/O[C@@]2(C)Oc3c(C)c(O)c4c(O)c(c5c(nc6cc(C)ccn65)c4c3C2=O)NC(=O)/C(C)=C\\C=C\\[C@H](C)[C@H](O)[C@@H](C)[C@@H](O)[C@@H](C)[C@H](OC(C)=O)[C@@H]1C [example 5, rifaximin]",
    "Solubility in water [µg/mL]": 46
  }
]
